Assay: Pharmacokinetic study, intraperitoneal
Type: in vivo, Sprague-Dawley rats
Details: male, Sprague-Dawley, rat, plasma, ip, 20 mg/kg, T1/2, Rat 1, 20mg/kg i.p.
reported.property: half-life
# include the unit after the value

Documented half-life of `Cc1ccc(C)c(COc2cc(NC(=O)c3ccc4c(c3)OCO4)ccc2N(C)S(C)(=O)=O)c1` : 2.44 h

====

Assay: Pharmacokinetic study, intraperitoneal
Type: in vivo, Sprague-Dawley rats
Settings: male, Sprague-Dawley, rat, plasma, ip, 20 mg/kg, T1/2, Rat 2, 20mg/kg i.p.
reported.property: half-life (h)
Only the number, expressed in h, is required.

Documented half-life of `Cc1ccc(C)c(COc2cc(NC(=O)c3ccc4c(c3)OCO4)ccc2N(C)S(C)(=O)=O)c1` : 3.71

====

Test system: SKBR-3 breast cancer cell
Assay: MTT cell viability, SKBR-3 breast cancer cell growth
Assay type: cell-based
Conditions: read-out: IC50 against SKBR-3 breast cancer cell growth; 48h treatment, MTT assay, six replicates
reported.property: IC50

Record `Cc1ccc(C)c(COc2cc(NC(=O)Cc3ccccc3)ccc2N(C)S(C)(=O)=O)c1` ; system SKBR-3 breast cancer cell; IC50 = > 30 µM

====

Test: Pharmacokinetic study, intraperitoneal
Format: in vivo, Sprague-Dawley rats
Details: male, Sprague-Dawley, rat, plasma, ip, 20 mg/kg, AUC(0-t), Rat 3, 20mg/kg i.p.
reported.property: AUC(0-t) (ng·h/mL)
Only the number, expressed in ng·h/mL, is required.

Documented AUC(0-t) of `Cc1ccc(C)c(COc2cc(NC(=O)c3ccc4c(c3)OCO4)ccc2N(C)S(C)(=O)=O)c1` : 9720

====

Assay: Pharmacokinetic study, intraperitoneal
Type: in vivo, Sprague-Dawley rats
Details: male, Sprague-Dawley, rat, plasma, ip, 20 mg/kg, T1/2, Rat 3, 20mg/kg i.p.
reported.property: half-life (h)
Only the number, expressed in h, is required.

Documented half-life of `Cc1ccc(C)c(COc2cc(NC(=O)c3ccc4c(c3)OCO4)ccc2N(C)S(C)(=O)=O)c1` : 3.21
